Quick reference: Plant response rating, Sedge, Umbrella of the listed items.
System: umbrella sedge (Cyperus difformis)
Assay: Test C flooded paddy test
Type: in vivo
Settings: Flood, 250 g ai/ha; scale 0 to 100
Experimental: At the same time, plants selected from these crop and weed species and also winter barley (Hordeum vulgare), blackgrass (Alopecurus myosuroides), canarygrass (Phalaris minor), chickweed (Stellaria media), downy brome (Bromus tectorum), green foxtail (Setaria viridis), Italian ryegrass (Lolium multiflorum), wheat (Triticum aestivum), wild oat (Avena fatua) and windgrass (Apera spica-venti) were treated with postemergence applications of some of the test chemicals formulated in the same manner. […]
Just the number, please, no unit attached.

CCOC(=O)c1nc(-c2ccc(Cl)cc2)nc(N)c1Br ... 90
CCOC(=O)c1nc(C2CC2)nc(N)c1Cl ... 65
CCCCOC(=O)c1nc(C2CC2)nc(N)c1Br ... 50

Note: attention shifts to another entry.
input: State its Plant response rating, Sedge, Umbrella: "CC(C)COC(=O)c1nc(C2CC2)nc(N)c1Br"
output: 20

---

tested on: cocklebur (Xanthium strumarium); test: Test B pre/postemergence; assay type: in vivo; conditions: Preemergence, 125 g ai/ha; scale 0 to 100 (0 no effect, 100 complete control)
API: label(entry) gives Condition met if the entry's Plant response rating, Cocklebur is strictly smaller than 20; on equality or larger values it gives Condition not met.

CC(=O)NN=Cc1nc(C2CC2)nc(N)c1Br ... Condition met
CCOC(=O)c1nc(C2CC2)nc(NCCN(C)C)c1Br ... Condition met
Nc1nc(C2CC2)nc(C=NO)c1Br ... Condition not met
CCOC(=O)c1nc(-c2ccc(I)cc2)nc(N)c1Cl ... Condition not met
CCOC(=O)c1nc(C2CC2)nc(NOCC(=O)O)c1Br ... Condition not met
CCCCOC(=O)c1nc(C2CC2)nc(N)c1Cl ... Condition not met

input: Lab note: Plant response rating, Cocklebur threshold 20. Does this compound come in strictly under it? "CCOC(=O)c1nc(C2CC2)nc(N2CCCC2)c1Br"
output: Condition met

input: Lab note: Plant response rating, Cocklebur threshold 20. Does this compound come in strictly under it? "Nc1nc(-c2ccc(Cl)cc2)nc(C(=O)O)c1Br"
output: Condition not met

input: Lab note: Plant response rating, Cocklebur threshold 20. Does this compound come in strictly under it? "CON=Cc1nc(C2CC2)nc(N)c1Br"
output: Condition met

input: Lab note: Plant response rating, Cocklebur threshold 20. Does this compound come in strictly under it? "CNN=Cc1nc(C2CC2)nc(N)c1Br"
output: Condition not met

input: Lab note: Plant response rating, Cocklebur threshold 20. Does this compound come in strictly under it? "CCCOC(=O)c1nc(C2CC2)nc(N)c1Br"
output: Condition not met

---

tested on: lambsquarters (Chenopodium album); experiment: Test C pre/postemergence; assay type: in vivo; settings: Chenopodium album, post-emergence, Postemergence, 125 g ai/ha; scale 0 to 100 (0 no effect, 100 complete control); read-out: Lambsquarters plant response rating
Quick reference: pest or weed control at 125 g/ha of the listed items.
A number alone suffices; assume %.

input: State its pest or weed control at 125 g/ha: COC(=O)c1nc(C2CC2)nc(N)c1I [Compound 7]
output: 60

input: State its pest or weed control at 125 g/ha: COC(=O)c1nc(C2CC2)nc(N)c1F [Compound 25]
output: 90

---

tested on: crabgrass (Digitaria sanguinalis); assay: Test A pre/postemergence; assay type: in vivo; conditions: Digitaria sanguinalis, pre-emergence, 240 h, Preemergence, 125 g ai/ha; 0 to 100 scale where 0 is no effect and 100 is complete control; approximately ten days; read-out: Plant response rating, Crabgrass
Quick reference: pest or weed control at 125 g/ha of the listed items.
A number alone suffices; assume %.

Past entries and their recorded results:
NC(=O)c1nc(C2CC2)nc(N)c1Cl ... 0
Nc1nc(C2CC2)nc(C(=O)[O-])c1Cl.[Na+] [Compound 77, monosodium salt] ... 70

input: State its pest or weed control at 125 g/ha: "Nc1nc(C2CC2)nc(C(=O)OCc2ccccc2)c1Cl"
output: 55

input: State its pest or weed control at 125 g/ha: "CCOC(=O)c1nc(-c2ccc(Cl)cc2)nc(N)c1Cl"
output: 25

input: State its pest or weed control at 125 g/ha: "CNc1nc(C2CC2)nc(C(=O)OC)c1Cl"
output: 30

input: State its pest or weed control at 125 g/ha: "COC(=O)c1nc(-c2ccc(Br)cc2)nc(N)c1Cl"
output: 50

---

Quick reference: Barnyardgrass plant response rating of the listed items.
system: barnyardgrass (Echinochloa crus-galli); assay: Test E flooded paddy water application; type: in vivo; details: 64 g ai/ha; Flood; 21 days; scale 0 to 100 (0 no effect, 100 complete control)
Just the number, please, no unit attached.

Past entries and their recorded results:
CCOC(=O)c1nc(-c2ccc(C)c(C)c2)nc(N)c1Br ... 0
CNc1nc(-c2ccc(Cl)cc2)nc(C(=O)OC)c1Cl ... 0
CCOC(=O)c1nc(-c2ccc(C)c(C)c2)nc(N)c1Cl ... 0
Nc1nc(-c2ccc(Cl)cc2)nc(C(=O)OCc2ccccc2)c1Cl ... 0
CCOC(=O)c1nc(-c2ccc(Cl)cc2Cl)nc(N)c1Br ... 0

input: State its Barnyardgrass plant response rating: "Cc1ccc(-c2nc(N)c(Cl)c(C(=O)O)n2)cc1"
output: 10

---

tested on: blackgrass (Alopecurus myosuroides); experiment: Test B postemergence; type: in vivo; conditions: 125 g ai/ha, scale 0 to 100 (0 no effect, 100 complete control)
value_kind: Blackgrass plant response rating

Past entries and their recorded results:
CCOC(=O)c1nc(-c2ccc(Cl)cc2)nc(N)c1Br ... 40
CCOC(=O)C(C)c1nc(C2CC2)nc(N)c1Br (stereo not shown) ... 30

input: State its Blackgrass plant response rating: "CCCCOC(=O)c1nc(C2CC2)nc(N)c1Cl"
output: 60

input: State its Blackgrass plant response rating: "CNN=Cc1nc(C2CC2)nc(N)c1Br"
output: 20

input: State its Blackgrass plant response rating: "COC(=O)Cc1nc(C2CC2)nc(N)c1Br"
output: 10

input: State its Blackgrass plant response rating: "CCOC(=O)c1nc(C2CC2)nc(NOCC(=O)O)c1Br"
output: 0

input: State its Blackgrass plant response rating: "CCOC(=O)Cc1nc(C2CC2)nc(N=CN(C)C)c1Br"
output: 40

input: State its Blackgrass plant response rating: "CCOC(=O)c1nc(C2CC2)nc(NOC)c1Br"
output: 0

input: State its Blackgrass plant response rating: "CCCOC(=O)c1nc(C2CC2)nc(N)c1Cl"
output: 60

input: State its Blackgrass plant response rating: "CON=Cc1nc(C2CC2)nc(N)c1Br"
output: 0

input: State its Blackgrass plant response rating: "CCOC(=O)c1nc(C2CC2)nc(NNC(C)=O)c1Br"
output: 0

input: State its Blackgrass plant response rating: "COC(=O)c1nc(-c2ccc(Cl)cc2)nc(N)c1Br"
output: 60

---

system: yellow nutsedge (Cyperus esculentus); assay: Test C pre/postemergence; assay type: in vivo; settings: Postemergence, 250 g ai/ha; scale 0 to 100
Quick reference: Plant response rating, Nutsedge, Yellow of the listed items.

Past entries and their recorded results:
CCCCOC(=O)c1nc(C2CC2)nc(N)c1Br ... 0
CCOC(=O)c1nc(-c2ccc(Cl)cc2)nc(N)c1Br ... 0
Nc1nc(C2CC2)nc(C=NO)c1Br ... 0
Nc1nc(-c2ccc(Cl)cc2)nc(C(=O)O)c1Br ... 75

Note: attention shifts to another entry.
input: # assay system yellow nutsedge (Cyperus esculentus): give Plant response rating, Nutsedge, Yellow of "COC(=O)CNc1nc(C2CC2)nc(C(=O)OC)c1Br"
output: 0

---

tested on: wheat (Triticum aestivum); test: Test B pre/postemergence; assay type: in vivo; conditions: Preemergence, 500 g ai/ha; scale 0 to 100 (0 no effect, 100 complete control)
Mark Not fulfilled for Plant response rating, Wheat values under 20, and Fulfilled for everything at or above.

CCOC(=O)c1nc(-c2ccc(Cl)cc2)nc(N)c1Br ... Fulfilled
CON=Cc1nc(C2CC2)nc(N)c1Br ... Fulfilled
CC(=O)NN=Cc1nc(C2CC2)nc(N)c1Br ... Not fulfilled
CCOC(=O)c1nc(C2CC2)nc(NNC(C)=O)c1Br ... Not fulfilled
COC(=O)c1nc(-c2ccc(C(F)(F)F)cc2)nc(N)c1Cl ... Fulfilled

input: For this compound, is measured Plant response rating, Wheat 20 or higher? CCOC(=O)C(OC(C)=O)c1nc(C2CC2)nc(N)c1Br (stereo not shown)
output: Fulfilled

input: For this compound, is measured Plant response rating, Wheat 20 or higher? "CCOC(=O)c1nc(C2CC2)nc(NOC)c1Br"
output: Not fulfilled

input: For this compound, is measured Plant response rating, Wheat 20 or higher? "CCOC(=O)c1nc(C2CC2)nc(N2CCCC2)c1Br"
output: Not fulfilled

input: For this compound, is measured Plant response rating, Wheat 20 or higher? "CCOC(=O)c1nc(C2CC2)nc(N=CN(C)C)c1Br"
output: Fulfilled
